Source of measurements: DBAASP

Tested on: Pseudomonas aeruginosa PAO1
Test: ≥ marks a high value that may be exact or a test limit, other limits are often not marked, values filed in µg/mL are converted to µM
Observable: MIC (µM)
Give the number; µM is assumed, so skip it.

• CC[C@H](C)[C@H](N)C(=O)N[C@@H](CC(C)C)C(=O)N[C@@H](CCCCN)C(=O)N[C@@H](Cc1c[nH]c2ccccc12)C(=O)N[C@@H](CCCCN)C(=O)N[C@@H](CCCN=C(N)N)C(=O)N[C@@H](CCCCN)C(=O)N[C@@H](Cc1c[nH]c2ccccc12)C(=O)N[C@@H](Cc1c[nH]c2ccccc12)C(=O)N[C@@H](CCCCN)C(=O)N[C@@H](Cc1c[nH]c2ccccc12)C(=O)N[C@@H](Cc1ccccc1)C(=O)N[C@@H](CCCN=C(N)N)C(N)=O [ILKWKRKWWKWFR] = 2

Give recorded MIC with Pseudomonas aeruginosa PAO1 for the following compound: CC[C@H](C)[C@H](N)C(=O)N[C@@H](CC(N)=O)C(=O)N[C@@H](CC(C)C)C(=O)N[C@@H](CCCCN)C(=O)N[C@@H](CCCCN)C(=O)N[C@@H](CC(C)C)C(=O)N[C@@H](C)C(=O)N[C@@H](C)C(=O)N[C@@H](CCCN=C(N)N)C(=O)N[C@H](C(=O)N[C@@H](CCCCN)C(=O)N[C@@H](CCCCN)C(=O)N[C@@H](CCCCN)C(=O)N[C@H](C(N)=O)[C@@H](C)CC)[C@@H](C)CC [INLKKLAARIKKKI]
4

Lab request: please report MIC under test system Pseudomonas aeruginosa PAO1 for CC[C@H](C)[C@H](NC(=O)[C@@H](NC(=O)[C@H](CS)NC(=O)[C@@H](NC(=O)[C@H](CCCN=C(N)N)NC(=O)[C@H](CS)NC(=O)[C@H](CCCN=C(N)N)NC(=O)[C@H](CC(C)C)NC(=O)[C@H](CCC(N)=O)NC(=O)[C@@H](N)C(C)C)C(C)C)C(C)C)C(=O)N[C@@H](CCCN=C(N)N)C(=O)N[C@@H](CCCCN)C(=O)O [VQLRCRVCVIRK]
43.5

Lab note: need MIC for CC[C@H](C)[C@H](NC(=O)[C@H](CCCN=C(N)N)NC(=O)[C@H](CCC(N)=O)NC(=O)[C@H](CC(C)C)NC(=O)[C@@H](NC(=O)[C@H](CCCN=C(N)N)NC(=O)[C@H](CCCCN)NC(=O)[C@H](Cc1ccccc1)NC(C)=O)[C@@H](C)CC)C(=O)N[C@@H](CCCCN)C(=O)N[C@@H](CC(=O)O)C(=O)N[C@@H](Cc1ccccc1)C(=O)N[C@@H](CC(C)C)C(=O)N[C@@H](CCCN=C(N)N)C(N)=O [FKRILQRIKDFLR] on Pseudomonas aeruginosa PAO1, anyone have it?
11.5
